Run Description: Phase 1b: pharmacokinetics at Cycle 1, Day 15
Condition Set: human, in vivo, 300 mg QD, geometric mean (geometric CV 18.2%)
Method: Additional patients were enrolled at the RP2D. The primary endpoint in Phase 1b was incidence of dose-limiting toxicities (DLTs) during Cycle 1. Details of DLTs are defined in Supplementary Table 3. Pharmacokinetics (PK) endpoints, including Cmax, and area under the concentration–time curve over the dosing interval at steady state (AUCτ,ss), were evaluated at Cycle 1, Day 15 as a secondary endpoint in Phase 1b. Selected efficacy measures were evaluated as secondary endpoints in Phase 1b. […]
Observable: AUC (ng·h/mL)
Field: numeric (ng·h/mL). Do not append units.

State its AUC for this compound: `CN1CCC(COc2cnc(-c3cccc(Cn4nc(-c5cccc(C#N)c5)ccc4=O)c3)nc2)CC1` 15200

----------
Run Description: Phase 1b: pharmacokinetics at Cycle 1, Day 15
Condition Set: human, in vivo, 300 mg QD, geometric mean (geometric CV 19.6%)
Observable: Cmax
# output: number + unit

State its Cmax for this compound: `CN1CCC(COc2cnc(-c3cccc(Cn4nc(-c5cccc(C#N)c5)ccc4=O)c3)nc2)CC1` 734 ng/mL
